Origin of measurements: the array DNA melting data of Ke et al. (doi:10.1101/2024.01.08.574731)

- assay-summary: melting temperature; fluorescence melt of hairpins on a sequencing array, two-state fit, raised by 9.35 °C to match UV melts
- test-settings: sodium 0.088 M
property-measured: Tm (°C)
Numbers only; they are read as °C.

**Q:** May I ask what Tm has been recorded for GGTTCCGAAAGGACGACC ((((((....)))..))) ?
**A:** 37.4

**Q:** Another sequence: GATACGGGAAACCGTACC (.(((((....))))).)
**A:** 32.1

**Q:** Queued: GATCGACGAAAGTCAATC (((.(((....))).)))
**A:** 40.3

**Q:** And what about the sequence GGTTTCGAAAGAACCACC ((((((....)))..))) ?
**A:** 34.4

**Q:** For GTCTTTCGAAAGAACGAC (((.(((....))).))) then?
**A:** 41

**Q:** Ok, now GTTGACCGAAAGGTAAC (((.(((....))))))
**A:** 38.1

**Q:** And GATCTTTTTCAAGATC ((((((....)))))) ?
**A:** 42.3

**Q:** Thanks! And GATCGCCCGAGCGATC ((((((....)))))) ?
**A:** 67.5

**Q:** Okay, and GATCTTGTGGAAGATC ((((((....)))))) ?
**A:** 41.3

**Q:** Query GCCAGGCCGAAAGGCGGC (((..(((....)))))) next
**A:** 64.9

**Q:** Consider next the sequence GTTAGCGGAAACGCCAAC (((.(((....))).))) in the same way.
**A:** 37.4

**Q:** Continue with GATCAAGTAGTTGATC ((((((....))))))
**A:** 46.7
